Readings of viability at 48 h for the listed molecules
# experiment summary: Cytotoxic activity, MTT assay, normal lung (WI-38)
# Type: cell-based
# condition label: human, WI-38 normal lung cells, Conc.: 5a 26.91, 5d 25.27, 5e 24.58, 5f 23.63, 7a 25.43, 7f 22.48, DOX 23.00; read-out: Viability %, WI-38, 2nd concentration
Report the value in % with no unit label.

[[record]]
molecule = "COc1ccc(Nc2n[nH]c(/N=C/c3ccc(N4CCCCC4)cc3)c2C(=O)Nc2ccccc2)cc1 [5d]"
readout_label = "viability at 48 h"
unit_name = "%"
value_observed = 90.7

[[record]]
molecule = "COc1ccc(Nc2n[nH]c(N=Cc3ccc(N4CCCCC4)cc3)c2C(=O)Nc2ccc(Cl)cc2)cc1 [5f]"
readout_label = "viability at 48 h"
unit_name = "%"
value_observed = 82

[[record]]
molecule = "Cc1c(C=Nc2[nH]nc(Nc3ccccc3)c2C(=O)Nc2ccccc2)c(=O)n(-c2ccccc2)n1C [7a]"
readout_label = "viability at 48 h"
unit_name = "%"
value_observed = 90.7

[[record]]
molecule = "COc1ccc(Nc2n[nH]c(N=Cc3c(C)n(C)n(-c4ccccc4)c3=O)c2C(=O)Nc2ccc(Cl)cc2)cc1 [7f]"
readout_label = "viability at 48 h"
unit_name = "%"
value_observed = 87.2


Record O=C(Nc1ccccc1)c1c(Nc2ccccc2)n[nH]c1N=Cc1ccc(N2CCCCC2)cc1 [5a] , field viability at 48 h: 75.5

Record COc1ccc(Nc2n[nH]c(/N=C/c3ccc(N4CCCCC4)cc3)c2C(=O)Nc2ccc(C)cc2)cc1 [5e] , field viability at 48 h: 87
